MIC values for the molecules below.
Test system: Staphylococcus aureus
PROCEDURE SUMMARY: Antibacterial activity against inducibly macrolide/lincosamide/streptogramin B-resistant Staphylococcus aureus by agar microdilution method
Type: functional
ASSAY ENDPOINT: MIC (µg/mL)

MOLECULE: C=CCO[C@]1(C)C[C@@H](C)NC(=O)[C@H](C)[C@@H](O)[C@](C)(O)[C@@H](CC)OC(=O)[C@H](C)[C@@H](OC(=O)CCN(C)CCc2ccc([N+](=O)[O-])cc2)[C@H](C)[C@H]1O[C@@H]1O[C@H](C)C[C@H](N(C)C)[C@H]1O
ASSAY ENDPOINT: MIC
MEAS VALUE: 0.5

MOLECULE: C=CCO[C@]1(C)C[C@@H](C)NC(=O)[C@H](C)[C@@H](O)[C@](C)(O)[C@@H](CC)OC(=O)[C@H](C)[C@@H](OC(=O)CCN2CCN(c3ccc4c(c3)c(=O)c(C(=O)O)cn4C3CC3)CC2)[C@H](C)[C@H]1O[C@@H]1O[C@H](C)C[C@H](N(C)C)[C@H]1O
ASSAY ENDPOINT: MIC
MEAS VALUE: 8

MOLECULE: C=CCO[C@]1(C)C[C@@H](C)NC(=O)[C@H](C)[C@@H](O)[C@](C)(O)[C@@H](CC)OC(=O)[C@H](C)[C@@H](OC(=O)CCNC(C)Cc2ccc(OC)cc2)[C@H](C)[C@H]1O[C@@H]1O[C@H](C)C[C@H](N(C)C)[C@H]1O (stereo partly drawn)
ASSAY ENDPOINT: MIC
MEAS VALUE: 2

----------
Test system: Streptococcus pyogenes
PROCEDURE SUMMARY: Antibacterial activity against constitutively macrolide/lincosamide/streptogramin B-resistant Streptococcus pyogenes by agar microdilution method
Assay type: functional

MOLECULE: CC[C@H]1OC(=O)[C@H](C)[C@@H](O[C@H]2C[C@@](C)(OC)[C@@H](O)[C@H](C)O2)[C@H](C)[C@@H](O[C@@H]2O[C@H](C)C[C@H](N(C)C)[C@H]2O)[C@](C)(O)C[C@@H](C)CN(C)[C@H](C)[C@@H](O)[C@]1(C)O [AZITHROMYCIN]
RESULT UNIT: µg/mL
QUALIFYING SIGN: >
MIC: 64

MOLECULE: C=CCO[C@]1(C)C[C@@H](C)NC(=O)[C@H](C)[C@@H](O)[C@](C)(O)[C@@H](CC)OC(=O)[C@H](C)[C@@H](OC(=O)CCNCCCc2ccccc2)[C@H](C)[C@H]1O[C@@H]1O[C@H](C)C[C@H](N(C)C)[C@H]1O
RESULT UNIT: µg/mL
QUALIFYING SIGN: >
MIC: 64

MOLECULE: C=CCO[C@]1(C)C[C@@H](C)NC(=O)[C@H](C)[C@@H](O)[C@](C)(O)[C@@H](CC)OC(=O)[C@H](C)[C@@H](OC(=O)CCNC(C)Cc2ccc([N+](=O)[O-])cc2)[C@H](C)[C@H]1O[C@@H]1O[C@H](C)C[C@H](N(C)C)[C@H]1O (stereo partly drawn)
RESULT UNIT: µg/mL
QUALIFYING SIGN: >
MIC: 64

MOLECULE: CC[C@H]1OC(=O)[C@H](C)[C@@H](OC(=O)CCNCCNc2cc3c(=O)c(C(=O)O)cn(C4CC4)c3cc2Cl)[C@H](C)[C@@H](O[C@@H]2O[C@H](C)C[C@H](N(C)C)[C@H]2O)[C@](C)(OC/C=C/c2ccnc3ccccc23)C[C@@H](C)NC(=O)[C@H](C)[C@@H](O)[C@]1(C)O
RESULT UNIT: µg/mL
QUALIFYING SIGN: =
MIC: 32

MOLECULE: CC[C@H]1OC(=O)[C@H](C)[C@@H](OC(=O)CCNCCNc2cc3c(=O)c(C(=O)O)cn(C4CC4)c3cc2Cl)[C@H](C)[C@@H](O[C@@H]2O[C@H](C)C[C@H](N(C)C)[C@H]2O)[C@](C)(OC/C=C/c2cnc3ccccc3n2)C[C@@H](C)NC(=O)[C@H](C)[C@@H](O)[C@]1(C)O
RESULT UNIT: µg/mL
QUALIFYING SIGN: =
MIC: 16

MOLECULE: CC[C@H]1OC(=O)[C@H](C)C(=O)[C@H](C)[C@@H](O[C@@H]2O[C@H](C)C[C@H](N(C)C)[C@H]2O)[C@](C)(OCC=Cc2cnc3ccccc3c2)C[C@@H](C)C(=O)[C@H](C)[C@H]2NC(=O)O[C@@]21C [CETHROMYCIN]
RESULT UNIT: µg/mL
QUALIFYING SIGN: =
MIC: 1

MOLECULE: C=CCO[C@]1(C)C[C@@H](C)NC(=O)[C@H](C)[C@@H](O)[C@](C)(O)[C@@H](CC)OC(=O)[C@H](C)[C@@H](OC(=O)CCN2CCN(c3cc4c(cc3F)c(=O)c(C(=O)O)cn4C3CC3)CC2)[C@H](C)[C@H]1O[C@@H]1O[C@H](C)C[C@H](N(C)C)[C@H]1O
RESULT UNIT: µg/mL
QUALIFYING SIGN: =
MIC: 8

MOLECULE: C=CCO[C@]1(C)C[C@@H](C)NC(=O)[C@H](C)[C@@H](O)[C@](C)(O)[C@@H](CC)OC(=O)[C@H](C)[C@@H](OC(=O)CCNC(C)C(=O)Nc2ccc([N+](=O)[O-])cc2)[C@H](C)[C@H]1O[C@@H]1O[C@H](C)C[C@H](N(C)C)[C@H]1O (stereo partly drawn)
RESULT UNIT: µg/mL
QUALIFYING SIGN: >
MIC: 64

MOLECULE: C=CCO[C@]1(C)C[C@@H](C)NC(=O)[C@H](C)[C@@H](O)[C@](C)(O)[C@@H](CC)OC(=O)[C@H](C)[C@@H](OC(=O)CCNCCCCc2ccccc2)[C@H](C)[C@H]1O[C@@H]1O[C@H](C)C[C@H](N(C)C)[C@H]1O
RESULT UNIT: µg/mL
QUALIFYING SIGN: >
MIC: 64

MOLECULE: CC[C@H]1OC(=O)[C@H](C)[C@@H](OC(=O)CCNCCNc2cc3c(=O)c(C(=O)O)cn(C4CC4)c3cc2Cl)[C@H](C)[C@@H](O[C@@H]2O[C@H](C)C[C@H](N(C)C)[C@H]2O)[C@](C)(OC/C=C/c2ccc3ncccc3c2)C[C@@H](C)NC(=O)[C@H](C)[C@@H](O)[C@]1(C)O
RESULT UNIT: µg/mL
QUALIFYING SIGN: =
MIC: 4

MOLECULE: C=CCO[C@]1(C)C[C@@H](C)NC(=O)[C@H](C)[C@@H](OC(=O)C=C)[C@](C)(O)[C@@H](CC)OC(=O)[C@H](C)[C@@H](OC(=O)C=C)[C@H](C)[C@H]1O[C@@H]1O[C@H](C)C[C@H](N(C)C)[C@H]1O
RESULT UNIT: µg/mL
QUALIFYING SIGN: >
MIC: 64

MOLECULE: C=CCO[C@]1(C)C[C@@H](C)NC(=O)[C@H](C)[C@@H](O)[C@](C)(O)[C@@H](CC)OC(=O)[C@H](C)[C@@H](OC(=O)CCNC(C)C(=O)Nc2ccc3ncccc3c2)[C@H](C)[C@H]1O[C@@H]1O[C@H](C)C[C@H](N(C)C)[C@H]1O (stereo partly drawn)
RESULT UNIT: µg/mL
QUALIFYING SIGN: =
MIC: 4

MOLECULE: C=CCO[C@]1(C)C[C@@H](C)NC(=O)[C@H](C)[C@@H](O)[C@](C)(O)[C@@H](CC)OC(=O)[C@H](C)[C@@H](OC(=O)CCNC(C)Cc2ccccc2)[C@H](C)[C@H]1O[C@@H]1O[C@H](C)C[C@H](N(C)C)[C@H]1O (stereo partly drawn)
RESULT UNIT: µg/mL
QUALIFYING SIGN: >
MIC: 64
